- MEASUREMENT TARGET: Kappa-type opioid receptor (Homo sapiens)
- METHOD DESCRIPTION: kappa opioid receptor blockers – cell-based, luminescence, uHTS (AID 1778)
- CONDITIONS: KOR beta-arrestin recruitment, antagonist mode, hits give high values; at 10 µM unless noted
In all, about 290,000 compounds went through this assay and about 260 (0.09%) were called active. This is one part of a sample in which actives are shown more often than they occur. Measured potencies and affinities stand elsewhere.
compounds and their reported inhibition
ENDPOINT LABEL: inhibition

COMPOUND	MEASUREMENT TARGET	ENDPOINT RESULT
COc1ccc(NC(=O)CSc2nc3sc(C)cc3c(=O)n2C)c(OC)c1	Kappa-type opioid receptor (Homo sapiens)	-25.7% (inactive)
O=C(O)CCC(=O)N1N=C(c2cccs2)CC1c1cccc([N+](=O)[O-])c1 (stereo not given)	Kappa-type opioid receptor (Homo sapiens)	-24.4% [at 20 µM] (inactive)
CCCc1ccc2oc(C(=O)N(C)CCn3ccnc3C)c(C)c2c1	Kappa-type opioid receptor (Homo sapiens)	-19.1% [at 20 µM] (inactive)
COc1ccc(-c2cc(C(=O)N/N=C/c3cccnc3)c3cc(C)cc(C)c3n2)cc1	Kappa-type opioid receptor (Homo sapiens)	1.8% (inactive)
CCOC(=O)C1CCN(C(=O)c2ccccc2CCc2ccccc2)CC1	Kappa-type opioid receptor (Homo sapiens)	12.9% (inactive)

###

- MEASUREMENT TARGET: Kappa-type opioid receptor (Homo sapiens) (UniProt P41145)
- Sequence (P41145 whole entry, looked up): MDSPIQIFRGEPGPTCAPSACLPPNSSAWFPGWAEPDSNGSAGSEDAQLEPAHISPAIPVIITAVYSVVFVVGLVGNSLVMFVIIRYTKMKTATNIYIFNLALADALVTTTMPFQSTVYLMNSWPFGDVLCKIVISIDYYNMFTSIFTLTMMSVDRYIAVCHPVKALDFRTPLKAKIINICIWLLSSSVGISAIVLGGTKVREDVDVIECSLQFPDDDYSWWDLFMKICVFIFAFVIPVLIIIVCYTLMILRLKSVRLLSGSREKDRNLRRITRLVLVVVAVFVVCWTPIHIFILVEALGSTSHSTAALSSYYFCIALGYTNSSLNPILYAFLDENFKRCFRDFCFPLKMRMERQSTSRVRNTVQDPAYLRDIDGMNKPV
- METHOD DESCRIPTION: kappa opioid receptor blockers – cell-based, luminescence, uHTS (AID 1778)
- CONDITIONS: KOR beta-arrestin recruitment, antagonist mode; at 10 µM unless noted
Screen size: about 290,000 compounds; about 260 (0.09%) were called active. No stated cut-off is given here; in the data, active means inhibition above about 50%; inactive means the rest. For the sample, actives were picked, then their nearest neighbours and some compounds at random. Measured potencies and affinities stand elsewhere.
Classes used: TRUE (active), FALSE (inactive)

MOLECULE	MEASUREMENT TARGET	CLASS LABEL
Cc1ccc(S(=O)(=O)Nc2cccc3ncccc23)cc1	Kappa-type opioid receptor (Homo sapiens) (UniProt P41145)	FALSE
CCOC(=O)C(C(=O)OCC)c1cc(Br)c2noc3c2c1C(=O)c1ccccc1-3	Kappa-type opioid receptor (Homo sapiens) (UniProt P41145)	TRUE
O=S(=O)(O)c1cccc2c(N=Nc3ccc(O)c4ncccc34)cccc12	Kappa-type opioid receptor (Homo sapiens) (UniProt P41145)	FALSE
Cc1c(NS(=O)(=O)c2cccs2)cccc1-c1nc2cccnc2s1	Kappa-type opioid receptor (Homo sapiens) (UniProt P41145)	FALSE
C(=C\CSc1ncn[nH]1)/CSc1ncn[nH]1	Kappa-type opioid receptor (Homo sapiens) (UniProt P41145)	FALSE
Oc1[nH]c2ccccc2c1C=Nc1ccc2c(c1)OCCO2	Kappa-type opioid receptor (Homo sapiens) (UniProt P41145)	FALSE
Cc1cccc(NC(=O)COC(=O)c2ccccc2SCC(=O)N2CCCC2)c1	Kappa-type opioid receptor (Homo sapiens) (UniProt P41145)	FALSE
Oc1ccc(N=Nc2ccc3c(c2)OCO3)c2ccccc12	Kappa-type opioid receptor (Homo sapiens) (UniProt P41145)	TRUE
O=C(NC(NC(=S)Nc1cccc(C(=O)O)c1)C(Cl)(Cl)Cl)OCc1ccccc1 (stereo not drawn)	Kappa-type opioid receptor (Homo sapiens) (UniProt P41145)	FALSE
CCCOc1cccc(-c2cc(C(=O)N/N=C/c3cccnc3)c3ccccc3n2)c1	Kappa-type opioid receptor (Homo sapiens) (UniProt P41145)	FALSE
C=CCn1c(O)c(N=NC(=S)Nc2ccc(OC)cc2)c2ccccc21	Kappa-type opioid receptor (Homo sapiens) (UniProt P41145)	FALSE
NC(=S)c1ncc(C(F)(F)F)cc1Cl	Kappa-type opioid receptor (Homo sapiens) (UniProt P41145)	FALSE
Cc1ccc(S(=O)(=O)Nc2ccnc3ccccc23)cc1	Kappa-type opioid receptor (Homo sapiens) (UniProt P41145)	FALSE
O=Cc1s/c(=N\S(=O)(=O)c2ccccc2)n(CCCCl)c1Cl	Kappa-type opioid receptor (Homo sapiens) (UniProt P41145)	FALSE
Cc1ccc(C)c(NC(=S)NC(NC(=O)OCc2ccccc2)C(Cl)(Cl)Cl)c1 (stereo not drawn)	Kappa-type opioid receptor (Homo sapiens) (UniProt P41145)	FALSE
CCCOc1cccc(-c2cc(C(=O)NN)c3ccccc3n2)c1	Kappa-type opioid receptor (Homo sapiens) (UniProt P41145)	FALSE
Cc1ccc(CNC(=O)C2CCCN(c3nc(C)cc(C)n3)C2)cc1 (stereo not drawn)	Kappa-type opioid receptor (Homo sapiens) (UniProt P41145)	FALSE
O=C(Nc1nc(-c2ccccn2)cs1)c1cc(Cl)ccc1[N+](=O)[O-]	Kappa-type opioid receptor (Homo sapiens) (UniProt P41145)	TRUE

###

- MEASUREMENT TARGET: Kappa-type opioid receptor (Homo sapiens) (UniProt P41145)
- METHOD DESCRIPTION: kappa opioid receptor blockers – cell-based, luminescence, uHTS (AID 1778)
- CONDITIONS: KOR beta-arrestin recruitment, antagonist mode; at 10 µM unless noted
About 260 (0.09%) of roughly 290,000 compounds were called active. No stated cut-off is given here; in the data, active means inhibition above about 50%; inactive means the rest. For the sample, actives were picked, then their nearest neighbours and some compounds at random. Potency and affinity values are given separately.
Classes used: active, inactive

MOLECULE	MEASUREMENT TARGET	CLASS LABEL
Cc1ccc(C(=O)N[C@@H](C)CN2C3=NC[C@H](C(C)C)N3C[C@H]2Cc2ccc(O)cc2)cc1Br	Kappa-type opioid receptor (Homo sapiens) (UniProt P41145)	inactive
COc1ccccc1NC(=O)c1cc2c(CO)cnc(C)c2oc1=Nc1cccc(C(N)=O)c1	Kappa-type opioid receptor (Homo sapiens) (UniProt P41145)	inactive
Cn1cccc1CNC(=S)Nc1ccccc1Cl	Kappa-type opioid receptor (Homo sapiens) (UniProt P41145)	inactive
COc1cccc(N=Nc2ccc3ccccc3c2O)c1	Kappa-type opioid receptor (Homo sapiens) (UniProt P41145)	inactive
COc1cccc(N=Nc2ccc(O)c3ncccc23)c1	Kappa-type opioid receptor (Homo sapiens) (UniProt P41145)	active
CCC1CCC(C(=O)NC(C(=O)NCCc2ccc(S(N)(=O)=O)cc2)C(C)C)CC1 (stereo unspecified)	Kappa-type opioid receptor (Homo sapiens) (UniProt P41145)	inactive
Oc1ccc(Nc2ccnc3cc(Cl)ccc23)cc1	Kappa-type opioid receptor (Homo sapiens) (UniProt P41145)	inactive
COc1ccc(N=Nc2ccc3ccccc3c2)c(O)c1	Kappa-type opioid receptor (Homo sapiens) (UniProt P41145)	inactive
Cc1cccc(N=Nc2ccc(O)c3ncccc23)c1	Kappa-type opioid receptor (Homo sapiens) (UniProt P41145)	inactive
COc1ccc(C2(NC(C)=O)CCN(C(=O)c3cccs3)CC2)cc1	Kappa-type opioid receptor (Homo sapiens) (UniProt P41145)	inactive
N#Cc1ccc(NC(=O)CSc2cn[nH]n2)cc1	Kappa-type opioid receptor (Homo sapiens) (UniProt P41145)	inactive

###

- MEASUREMENT TARGET: Kappa-type opioid receptor (Homo sapiens) (UniProt P41145)
- METHOD DESCRIPTION: kappa opioid receptor blockers – cell-based, luminescence, uHTS (AID 1778)
- CONDITIONS: KOR beta-arrestin recruitment, antagonist mode; at 10 µM unless noted
Screen size: about 290,000 compounds; about 260 (0.09%) were called active. Cut-off read from the data, not from the text of the source: active = inhibition above about 50%; inactive = the rest. Shown is part of a subset that was picked to be rich in actives. Measured potencies and affinities stand elsewhere.
Classes used: Y (active), N (inactive)

COMPOUND	CLASS LABEL
Cn1c(=O)[nH]c(=O)c2c1nc(NCCN)n2CCOc1ccccc1	N
Cc1cccnc1Nc1nc(-c2ccc(O)cc2)cs1	N
Cc1sc2c(c1C)C(=O)NC(c1cccc(O)c1)N2 (configuration not stated)	N
COc1ccc(N2CCN(CCCNC(=O)Cn3c(=O)c4cccn4c4ccccc43)CC2)cc1	N
NNC(=O)c1cc(-c2cccs2)nc2ccccc12	N
O=[N+]([O-])c1c(Nc2ccc(O)cc2)cc(Cl)c2nonc12	Y
O=C(NNC1=Nc2ccccc2SC1)c1ccccc1F	N
CN(C)c1cc(Nc2ccc(O)cc2)c([N+](=O)[O-])c2nonc12	N
O=C(NNC(=O)c1ccccc1[N+](=O)[O-])c1ccccn1	N
NS(=O)(=O)c1ccc(CCNC(=O)CSc2nc3ccsc3c(=O)n2CCCCC(=O)O)cc1	N
Cc1c(C(=O)O)[nH]c2c1C(=O)CC(c1ccccc1)C2 (configuration not stated)	N
COc1ccc(N2CCN(CCCNC(=O)C(=O)c3c(C)[nH]c4ccccc34)CC2)cc1	N
O=C(O)c1cccc(Nc2cc(Cl)c3nonc3c2[N+](=O)[O-])c1	N
O=C(O)c1ccc(N/N=C/c2cccc3nccnc23)cc1	N
Cc1cccnc1Nc1nc(-c2ccccc2)cs1	N
O=C(Cn1c(=O)c2cccn2c2cccnc21)NCCCN1CCN(c2ccc(F)cc2)CC1	N
COc1ccc(C2=NN(C(=O)c3cccs3)C(c3ccccc3OC)C2)cc1OC (configuration not stated)	N

###

molecules and their reported inhibition
- MEASUREMENT TARGET: Kappa-type opioid receptor (Homo sapiens) (UniProt P41145)
- METHOD DESCRIPTION: kappa opioid receptor blockers – cell-based, luminescence, uHTS (AID 1778)
- CONDITIONS: KOR beta-arrestin recruitment, antagonist mode, hits give high values; at 10 µM unless noted
In all, about 290,000 compounds went through this assay and about 260 (0.09%) were called active. Many of the other results were omitted from the sample, so actives are more common in it than they were. Measured potencies and affinities stand elsewhere.
ENDPOINT LABEL: inhibition

MOLECULE	ENDPOINT RESULT
Cc1cc(N)nc2nc(C(F)(F)F)nn12	-5.6% (inactive)
C/C=N/NC(=O)CCNC(=O)c1ccccc1	-40% (inactive)
CC(C)CNC(=S)N(CCCN(C)C)Cc1cc2cc3c(cc2[nH]c1=O)OCCO3	-1.3% [at 20 µM] (inactive)
CC1(C)CC(=O)C(/C=N/c2ncccc2C(=O)O)=C(O)C1	-24.7% (inactive)
CC(CCc1ccccc1)NC(=O)c1ccc(NC(=O)c2ccc(Cl)cc2Cl)cc1 (stereo not drawn)	26.3% (inactive)
COc1ccc(C(=O)/C=C/C(=O)N(Cc2ccccc2)C(C(=O)NC2CCCCC2)c2ccncc2)c(O)c1 (stereo not drawn)	9.1% (inactive)
COc1ccc(C(=O)/C=C/C(=O)N(Cc2ccc3c(c2)OCO3)C(C(=O)NC2CCCCC2)c2ccncc2)c(O)c1 (stereo not drawn)	15.5% (inactive)
COc1ccc(CN(C(=O)/C=C/C(=O)c2ccc(OC)cc2O)C(C(=O)NC2CCCCC2)c2ccncc2)cc1 (stereo not drawn)	8.2% (inactive)

Origin of the recorded values: PubChem BioAssay AID1778
